Biological target: TLR10 (Homo sapiens)
Sequence (Q9BXR5 20-576): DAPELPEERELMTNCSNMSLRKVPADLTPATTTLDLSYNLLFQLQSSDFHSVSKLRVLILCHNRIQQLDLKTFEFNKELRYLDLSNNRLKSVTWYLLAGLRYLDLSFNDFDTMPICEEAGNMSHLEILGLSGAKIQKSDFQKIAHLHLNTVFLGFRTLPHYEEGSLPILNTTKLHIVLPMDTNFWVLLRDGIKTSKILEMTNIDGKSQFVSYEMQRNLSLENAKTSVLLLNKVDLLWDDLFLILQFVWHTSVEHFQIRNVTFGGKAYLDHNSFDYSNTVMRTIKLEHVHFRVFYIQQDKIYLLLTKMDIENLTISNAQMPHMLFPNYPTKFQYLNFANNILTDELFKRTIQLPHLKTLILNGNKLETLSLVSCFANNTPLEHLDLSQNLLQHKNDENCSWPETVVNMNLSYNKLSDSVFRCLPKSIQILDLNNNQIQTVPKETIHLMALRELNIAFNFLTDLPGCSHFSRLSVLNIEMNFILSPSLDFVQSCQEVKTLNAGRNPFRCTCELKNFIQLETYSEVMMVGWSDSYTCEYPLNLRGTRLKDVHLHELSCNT
Assay: mRNA display affinity selection against TLR10, NGS abundance
Type: binding
Parameters: Chimera protein (extracellular domain, amino acid 20-576;); Fc (chimera); purchased R&D system #6619-TR-050
Settings: TLR10 selection pulldown (+); Top100 selection hits, NGS
Raw reads values for the sequences below.

primarySequence: RIETARLVIL
Raw reads: 72
--
primarySequence: IGNVCVVSS
Raw reads: 660
--
primarySequence: AINFELTNKIAF
Raw reads: 804
--
primarySequence: SNVIYARQHIIG
Raw reads: 49
--
primarySequence: CMIFHTQLKIAF
Raw reads: 52
--
primarySequence: STIVFKHQQISG
Raw reads: 18
--
primarySequence: SVSFPLQRKLVF
Raw reads: 63
--
primarySequence: AFQRRDDFRWVI
Raw reads: 19
--
primarySequence: AVIVWAKQGIKG
Raw reads: 58
--
primarySequence: ASINRYGGNAAS
Raw reads: 7526
--
primarySequence: GTGLNRYGGINY
Raw reads: 2231
--
primarySequence: AKLIYRTQGIMG
Raw reads: 206
--
primarySequence: TMHFSNQRKLVF
Raw reads: 21
--
primarySequence: MNPYSGNIVV
Raw reads: 21
--
primarySequence: VGRVYIKSS
Raw reads: 251
--
primarySequence: LGNVYIRSS
Raw reads: 73
--
primarySequence: SSYVYHKQRIRG
Raw reads: 21
--
primarySequence: AVRNKYGGNAAS
Raw reads: 5293
--
primarySequence: ICFVYVRSS
Raw reads: 27
--
primarySequence: IGNTYVASS
Raw reads: 21
--
primarySequence: SRTIYRCQSIRG
Raw reads: 777
--
primarySequence: RNPYSGNIAI
Raw reads: 543
--
primarySequence: CLPFPLQMRIAY
Raw reads: 21
--
primarySequence: SMLVWKGQSIRG
Raw reads: 408
--
primarySequence: ALLIKQTNMLYC
Raw reads: 2215
--
primarySequence: CVLVNNRYLVH
Raw reads: 55
--
primarySequence: IGKTYVKSC
Raw reads: 26
--
primarySequence: ALRFPHLGMMAF
Raw reads: 25
--
primarySequence: FRGVLIRSS
Raw reads: 18
--
primarySequence: SVIFNLLRQVAY
Raw reads: 17
--
primarySequence: IGRVMIKSS
Raw reads: 778
--
primarySequence: WCGATLYSSIS
Raw reads: 23
--
primarySequence: AIYYSRLNKVAF
Raw reads: 18
--
primarySequence: STLIYKLQCILG
Raw reads: 78

* * *

sequences and their reported Library fraction
Target: TLR10 (Homo sapiens)
Sequence (Q9BXR5 20-576): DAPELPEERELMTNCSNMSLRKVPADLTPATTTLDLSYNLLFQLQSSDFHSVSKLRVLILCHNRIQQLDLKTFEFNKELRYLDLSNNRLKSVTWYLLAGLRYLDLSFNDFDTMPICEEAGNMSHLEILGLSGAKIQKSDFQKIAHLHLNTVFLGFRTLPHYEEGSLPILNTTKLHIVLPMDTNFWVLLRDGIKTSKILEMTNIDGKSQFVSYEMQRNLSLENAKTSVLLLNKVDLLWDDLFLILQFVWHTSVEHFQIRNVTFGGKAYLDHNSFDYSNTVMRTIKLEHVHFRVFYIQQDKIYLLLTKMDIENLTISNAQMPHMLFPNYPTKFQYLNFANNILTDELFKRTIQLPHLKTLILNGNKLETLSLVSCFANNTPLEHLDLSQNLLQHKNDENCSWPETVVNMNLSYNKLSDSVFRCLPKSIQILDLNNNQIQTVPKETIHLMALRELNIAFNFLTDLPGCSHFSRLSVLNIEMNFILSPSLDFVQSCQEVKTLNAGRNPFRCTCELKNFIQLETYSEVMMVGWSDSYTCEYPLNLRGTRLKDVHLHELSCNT
Test: mRNA display affinity selection against TLR10, NGS abundance
Assay type: binding
Set-up: Chimera protein (extracellular domain, amino acid 20-576;); Fc (chimera); purchased R&D system #6619-TR-050
Conditions: TLR10 selection pulldown (+); Top100 selection hits, NGS
measuredMetric: Library fraction

primarySequence: SLEFPHLVIH
measValue: 0.00028
//
primarySequence: SRTIYRCQSIRG
measValue: 0.008
//
primarySequence: ALLIKQTNMLYC
measValue: 0.023
//
primarySequence: TMFFRRQNAMAL
measValue: 0.00074
//
primarySequence: TILFSLQNVRAF
measValue: 0.00137
//
primarySequence: SFMFFSQRKLAF
measValue: 0.00034
//
primarySequence: AVEFRLQRAIAY
measValue: 0.00163
//
primarySequence: SSPNRYGGNVNT
measValue: 0.00122
//
primarySequence: SLETSHLVIY
measValue: 0.00035
//
primarySequence: SPIHFRSVL
measValue: 0.00047
//
primarySequence: SNSNRYGGLITS
measValue: 0.045
//
primarySequence: STLIYKLQCILG
measValue: 0.0008
//
primarySequence: SMLLPMQRVVMF
measValue: 0.00018
//
primarySequence: IGRLYIKSS
measValue: 0.003
//
primarySequence: AIYYSRLNKVAF
measValue: 0.00018
//
primarySequence: ICFVYVRSS
measValue: 0.00028
//
primarySequence: SMCVWARQKIVG
measValue: 0.00071
//
primarySequence: SVCVYQHQGIRG
measValue: 0.035
//
primarySequence: VGQVLVKSS
measValue: 0.00061
//
primarySequence: RILFPLQNSIAF
measValue: 0.00041
//
primarySequence: SSYVYHKQRIRG
measValue: 0.00022
//
primarySequence: FVLNGRYLVM
measValue: 0.0007
//
primarySequence: TNPYGGNITM
measValue: 0.015
//
primarySequence: SILFSIQNKLVL
measValue: 0.00021
//
primarySequence: WPGSMARDSIS
measValue: 0.013
//
primarySequence: GCLHGNVPVYY
measValue: 0.00224
//
primarySequence: GLVINKRWYVHL
measValue: 0.00058
//
primarySequence: LGNVYIRSS
measValue: 0.00075
//
primarySequence: SIMIYCNQKIRG
measValue: 0.00114
//
primarySequence: ASINRYGGNAAS
measValue: 0.077
//
primarySequence: SIQFKVLQKLAF
measValue: 0.00018
//
primarySequence: SMLVWKGQSIRG
measValue: 0.004
//
primarySequence: GDLRGNVCMWL
measValue: 0.00021
//
primarySequence: FRGVLIRSS
measValue: 0.00018
//
primarySequence: TNPYGGNVGW
measValue: 0.143

* * *

Quick reference: Library fraction of the listed items.
Biological target: IRAK4 (Homo sapiens, UniProt Q9NWZ3)
Sequence (Q9NWZ3 1-460): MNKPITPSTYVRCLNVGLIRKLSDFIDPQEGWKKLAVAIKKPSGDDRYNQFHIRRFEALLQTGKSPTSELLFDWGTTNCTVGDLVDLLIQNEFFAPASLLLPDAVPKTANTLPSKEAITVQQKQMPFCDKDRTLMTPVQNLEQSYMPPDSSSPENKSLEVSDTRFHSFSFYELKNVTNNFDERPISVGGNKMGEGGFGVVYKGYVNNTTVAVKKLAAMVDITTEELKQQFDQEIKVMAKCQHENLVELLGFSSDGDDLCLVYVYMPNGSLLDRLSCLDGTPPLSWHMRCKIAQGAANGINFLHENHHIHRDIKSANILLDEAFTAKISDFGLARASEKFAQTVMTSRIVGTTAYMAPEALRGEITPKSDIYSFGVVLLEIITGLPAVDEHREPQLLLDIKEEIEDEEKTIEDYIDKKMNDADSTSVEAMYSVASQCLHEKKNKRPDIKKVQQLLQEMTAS
Experiment: mRNA display affinity selection against IRAK4, NGS abundance
Type: binding
Design: acids 1-460; NP_057207.2) was purchased from Carna Biosciences; purchased Carna Biosciences (Kobe, Japan)
Conditions: IRAK4 selection pulldown (-); Top100 selection hits, NGS
measuredMetric: Library fraction

primarySequence: SVLWKRKIHN
measValue: 0.001
//
primarySequence: TQRWRARNYK
measValue: 0.00431
//
primarySequence: TQFWKRRNYA
measValue: 7e-5
//
primarySequence: AMSLYWARRRPH
measValue: 0.00857
//
primarySequence: SMLWRRRKYA
measValue: 7e-5
//
primarySequence: SLRWKRRIWS
measValue: 9e-5
//
primarySequence: SARWRRRNYS
measValue: 0.00011
